- assayed-system: PI3K (p110a(E542K)/p85a) (Homo sapiens, UniProt P42336, E542K)
- Construct: purchased Reaction Biology Corporation (RBC)
- Sequence (P42336 whole entry E542K): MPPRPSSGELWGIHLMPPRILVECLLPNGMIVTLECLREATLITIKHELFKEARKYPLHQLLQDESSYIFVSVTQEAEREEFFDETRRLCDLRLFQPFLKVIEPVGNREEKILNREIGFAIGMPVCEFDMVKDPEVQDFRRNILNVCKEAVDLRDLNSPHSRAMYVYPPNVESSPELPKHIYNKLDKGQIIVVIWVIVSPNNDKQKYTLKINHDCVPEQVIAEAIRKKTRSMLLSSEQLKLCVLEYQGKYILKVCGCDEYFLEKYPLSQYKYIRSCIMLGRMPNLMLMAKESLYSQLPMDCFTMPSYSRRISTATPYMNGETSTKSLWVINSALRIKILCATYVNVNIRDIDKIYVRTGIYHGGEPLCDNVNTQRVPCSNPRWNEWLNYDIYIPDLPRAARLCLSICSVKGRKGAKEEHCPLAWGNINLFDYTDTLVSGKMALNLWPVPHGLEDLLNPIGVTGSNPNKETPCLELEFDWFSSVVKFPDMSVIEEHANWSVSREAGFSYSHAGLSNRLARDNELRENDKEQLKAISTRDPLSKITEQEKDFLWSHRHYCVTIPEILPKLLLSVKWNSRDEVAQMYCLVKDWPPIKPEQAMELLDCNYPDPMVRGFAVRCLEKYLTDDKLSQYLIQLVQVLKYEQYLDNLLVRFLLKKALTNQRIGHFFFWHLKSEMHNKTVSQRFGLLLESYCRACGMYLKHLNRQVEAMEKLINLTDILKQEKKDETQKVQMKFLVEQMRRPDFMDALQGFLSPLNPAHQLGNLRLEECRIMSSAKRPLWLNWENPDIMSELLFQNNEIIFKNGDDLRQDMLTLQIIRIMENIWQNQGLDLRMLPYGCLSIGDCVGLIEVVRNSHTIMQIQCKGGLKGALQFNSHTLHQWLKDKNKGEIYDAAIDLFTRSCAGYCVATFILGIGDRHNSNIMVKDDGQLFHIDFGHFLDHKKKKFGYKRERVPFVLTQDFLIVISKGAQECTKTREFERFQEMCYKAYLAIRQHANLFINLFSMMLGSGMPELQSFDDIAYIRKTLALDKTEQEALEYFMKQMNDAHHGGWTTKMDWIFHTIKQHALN
- Sequence (P27986 whole entry partner): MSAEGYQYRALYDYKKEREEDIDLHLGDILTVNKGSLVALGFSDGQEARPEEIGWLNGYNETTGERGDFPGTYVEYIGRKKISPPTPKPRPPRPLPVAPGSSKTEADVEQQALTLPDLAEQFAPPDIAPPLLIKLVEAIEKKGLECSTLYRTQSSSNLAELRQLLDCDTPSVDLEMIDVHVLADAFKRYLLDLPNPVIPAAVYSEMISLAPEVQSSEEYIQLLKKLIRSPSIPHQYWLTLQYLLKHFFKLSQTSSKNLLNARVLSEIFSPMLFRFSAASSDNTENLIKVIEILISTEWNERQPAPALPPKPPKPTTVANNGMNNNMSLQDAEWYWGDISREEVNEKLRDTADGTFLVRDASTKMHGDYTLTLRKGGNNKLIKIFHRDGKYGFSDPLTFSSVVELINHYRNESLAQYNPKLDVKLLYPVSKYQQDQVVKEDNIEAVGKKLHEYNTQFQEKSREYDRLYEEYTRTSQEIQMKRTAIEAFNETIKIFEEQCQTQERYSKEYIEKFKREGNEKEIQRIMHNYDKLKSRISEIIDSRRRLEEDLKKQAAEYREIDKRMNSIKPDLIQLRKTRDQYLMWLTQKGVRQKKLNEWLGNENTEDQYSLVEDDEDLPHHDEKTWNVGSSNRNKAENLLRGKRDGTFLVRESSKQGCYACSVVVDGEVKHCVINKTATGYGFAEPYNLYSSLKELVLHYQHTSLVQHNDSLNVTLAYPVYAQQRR
- test-method-notes: Lipid kinase inhibitory activity, ADP-Glo
- Format: biochemical
- condition-details: α E542K
pIC50: −log10 of the molar value.
quantity-name: pIC50

- molecule: "Oc1cccc(-c2nc(N3CCOCC3)c3sccc3n2)c1 [MTPP, reference compound]"
  assayed-system: "PI3K (p110a(E542K)/p85a) (Homo sapiens, UniProt P42336, E542K)"
  measured: 8.25

1. OCc1cccc(-c2nc(N3CCOCC3)c3sccc3n2)c1 [MTPPM, reference compound]
2. CC(=O)OCc1cccc(-c2nc(N3CCOCC3)c3sccc3n2)c1
3. CC(=O)Oc1cccc(-c2nc(N3CCOCC3)c3sccc3n2)c1
input: # ascending order, key=pIC50 Please list each label once, in the requested order.
output: 2, 3, 1
(2: 5.43, 3: 7.38, 1: 8.05)

---

- assayed-system: PI3K (p110a(H1047R)/p85a) (Homo sapiens, UniProt P42336, H1047R)
- Sequence (P42336 whole entry H1047R): as the sequence (P42336 whole entry E542K) above, with K542E, H1047R counted along it
- Sequence (P27986 whole entry partner): as the sequence (P27986 whole entry partner) above
- test-method-notes: Lipid kinase inhibitory activity, ADP-Glo
- condition-details: α H1047R
quantity-name: IC50 (nM)

- compound: "Oc1cccc(-c2nc(N3CCOCC3)c3sccc3n2)c1 [MTPP, reference compound]"
  quantity-name: "IC50"
  unit: "nM"
  measured: 7.2

1. CC(=O)Oc1cccc(-c2nc(N3CCOCC3)c3sccc3n2)c1
2. OCc1cccc(-c2nc(N3CCOCC3)c3sccc3n2)c1 [MTPPM, reference compound]
input: Please indicate which has the smaller reported IC50: 1 , or 2 . Refer to your chosen entry by its label in the reply.
output: 2
(2: 7.8 nM, 1: 59 nM)

---

- assayed-system: PI3Ka (p110a/p85a) (Homo sapiens, UniProt P42336)
- Construct: purchased Reaction Biology Corporation (RBC)
- Sequence (P42336 whole entry): as the sequence (P42336 whole entry E542K) above, with K542E counted along it
- Sequence (P27986 whole entry partner): as the sequence (P27986 whole entry partner) above
- test-method-notes: Lipid kinase inhibitory activity, ADP-Glo
- Format: biochemical
- condition-details: α
- Method: Lipid kinases: Lipid kinases from Reaction Biology Corporation (RBC) in ADP-Glo format were used. Assay Description: The kinase reactions utilized ATP and produced ADP as a byproduct. The ADP production was quantified by ADP-Glo luminescence detection. This assay was a 3-step reaction. […] Assay Procedure: The assay was performed according to the steps as follows: • 1. […] Measuring luminescence. Data Analysis: The luminescence was converted into μM ADP production based on ADP standard curves. […]
quantity-name: IC50 (nM)

- compound: "OCc1cccc(-c2nc(N3CCOCC3)c3sccc3n2)c1 [MTPPM, reference compound]"
  unit: "nM"
  IC50: 7

A. CC(=O)Oc1cccc(-c2nc(N3CCOCC3)c3sccc3n2)c1
B. CC(=O)OCc1cccc(-c2nc(N3CCOCC3)c3sccc3n2)c1
C. Oc1cccc(-c2nc(N3CCOCC3)c3sccc3n2)c1 [MTPP, reference compound]
input: Task field, ranking: reported IC50, descending order. Please list each label once, in the requested order.
output: B, A, C
(B: 1930 nM, A: 35 nM, C: 5.2 nM)
